// provenance: the supplement of paper PMC4862054

# System: BT-549
# protocol-conditions: 72 h
value-kind: EC50, CellTiter-Glo (nM)
Please state the figure in nM; there is no need to write the unit.

Solved cases below.
compound | system-name | unit | observed-result
CC/C(=C(\c1ccc(O)cc1)c1ccc(OCCN(C)C)cc1)c1ccccc1 [4-hydroxytamoxifen] | BT-549 | nM | 1900
O=C(Nc1c[nH]nc1-c1nc2ccc(CN3CCOCC3)cc2[nH]1)NC1CC1 | BT-549 | nM | 406

Qu. Answer with the recorded EC50, CellTiter-Glo of Cn1cc(CNCC2CCN(c3ncc(C(=O)NO)cn3)CC2)c2ccccc21 only.
Ans. 81.8

###

# Tested on: CAL-51
# protocol: normalised viability (% of control), CellTiter-Blue; higher = more viable cells (about 100 = DMSO control)
# protocol-conditions: incubation time: 72 h
value-kind: normalised viability (%)
Please state the figure in %; there is no need to write the unit.

compound | system-name | unit | normalised viability
CCC/C=C/C=C/C(=O)O[C@H]1/C(=C/C(=O)OC)C[C@H]2C[C@H]([C@@H](C)O)OC(=O)C[C@H](O)C[C@@H]3C[C@H](OC(C)=O)C(C)(C)[C@](O)(C[C@@H]4C/C(=C/C(=O)OC)C[C@H](/C=C/C(C)(C)[C@]1(O)O2)O4)O3 [Bryostatin 1] (100 nM) | CAL-51 | % | 109

Qu. Answer with the recorded normalised viability of Cc1ccc(Nc2nccc(N(C)c3ccc4c(C)n(C)nc4c3)n2)cc1S(N)(=O)=O [Pazopanib] (10000 nM) only.
Ans. 83.9

Qu. Answer with the recorded normalised viability of Cc1cccc(-c2nn3c(c2-c2ccnc4ccc(C(N)=O)cc24)CCC3)n1 (1000 nM) only.
Ans. 103

Qu. Answer with the recorded normalised viability of O=C(NC[C@H](O)CO)c1ccncc1Nc1ccc(I)cc1F (10000 nM) only.
Ans. 65

Qu. Answer with the recorded normalised viability of Nc1ccccc1NC(=O)c1ccc(CNc2nccc(-c3cccnc3)n2)cc1 [Mocetinostat] (10000 nM) only.
Ans. 19.3

Qu. Answer with the recorded normalised viability of CC[C@@]1(O)C(=O)OCc2c1cc1n(c2=O)Cc2cc3c(CN(C)C)c(O)ccc3nc2-1 [Topotecan] (1000 nM) only.
Ans. 15.6

Qu. Answer with the recorded normalised viability of O=C1c2c(O)ccc(O)c2C(=O)c2c(NCCNCCO)ccc(NCCNCCO)c21 [Mitoxantrone] (1000 nM) only.
Ans. 16.9

###

As shown below, each of these compounds has a reported normalised viability value.
# System: MDA-MB-453
# protocol: normalised viability (% of control), CellTiter-Blue; higher = more viable cells (about 100 = DMSO control)
# protocol-conditions: 10 nM; incubation time: 72 h
Please state the figure in %; there is no need to write the unit.

Solved cases below.
compound | value-kind | observed-result
COc1cc(CCc2cc(NC(=O)c3ccc(N4CC(C)NC(C)C4)cc3)n[nH]2)cc(OC)c1 (centres undefined) [AZD4547] | normalised viability | 95.8
Cn1cc(CNCC2CCN(c3ncc(C(=O)NO)cn3)CC2)c2ccccc21 | normalised viability | 25.8
CC[C@@]1(O)C(=O)OCc2c1cc1n(c2=O)Cc2cc3c(CN(C)C)c(O)ccc3nc2-1 [Topotecan] | normalised viability | 102

Qu. Answer with the recorded normalised viability of O=C1c2c(O)ccc(O)c2C(=O)c2c(NCCNCCO)ccc(NCCNCCO)c21 [Mitoxantrone] only.
Ans. 74

###

# Tested on: HDQ-P1
# protocol: normalised response (% of control), CellTiter-Glo; higher = more viable cells (100 = DMSO, 0 = benzethonium chloride kill control)
# protocol-conditions: incubation time: 72 h
value-kind: normalised response (%)
Please state the figure in %; there is no need to write the unit.

compound | system-name | normalised response (%)
CC(=O)OC[C@H]1O[C@@H]([S-])[C@H](OC(C)=O)[C@@H](OC(C)=O)[C@@H]1OC(C)=O.CCP(CC)CC.[Au+] [Auranofin] (0.25 nM) | HDQ-P1 | 99.9

Qu. Answer with the recorded normalised response of CC/C(=C(\c1ccc(O)cc1)c1ccc(OCCN(C)C)cc1)c1ccccc1 [4-hydroxytamoxifen] (10 nM) only.
Ans. 95.7

Qu. Answer with the recorded normalised response of O=S(=O)(c1cccc2cnccc12)N1CCCNCC1 [Fasudil] (50 nM) only.
Ans. 96.6

Qu. Answer with the recorded normalised response of CO[C@@H](C(=O)N1Cc2[nH]nc(NC(=O)c3ccc(N4CCN(C)CC4)cc3)c2C1)c1ccccc1 [Danusertib] (1000 nM) only.
Ans. 82.5

###

As shown below, each of these compounds has a reported normalised response value.
# Tested on: BT-474
# protocol: normalised response (% of control), CellTox Green; higher = less cell death (100 = DMSO, 0 = benzethonium chloride kill control)
# protocol-conditions: incubation time: 72 h
Please state the figure in %; there is no need to write the unit.

Solved cases below.
compound | system-name | observed-result
Cc1c(Cn2c(C)nc3c(C(=O)O)cc(N4CCOCC4)cc32)cccc1C(F)(F)F (100 nM) | BT-474 | 104
CCN(CC)CCNC(=O)c1c(C)[nH]c(/C=C2\C(=O)Nc3ccc(F)cc32)c1C [Sunitinib] (10 nM) | BT-474 | 100

Qu. Answer with the recorded normalised response of O=S(=O)(c1cccc2cnccc12)N1CCCNCC1 [Fasudil] (50000 nM) only.
Ans. 99.3

Qu. Answer with the recorded normalised response of COc1ccc(-c2cc3c(C)nc(N)nc3n([C@H]3CC[C@H](OCCO)CC3)c2=O)cn1 (1000 nM) only.
Ans. 49.8

###

As shown below, each of these molecules has a reported normalised viability value.
# Test system: Hs578T
# protocol: normalised viability (% of control), CellTiter-Blue; higher = more viable cells (about 100 = DMSO control)
# protocol-conditions: 100 nM; incubation time: 72 h
Please state the figure in %; there is no need to write the unit.

Solved cases below.
compound-structure | unit | normalised viability
CS(=O)(=O)N1CCN(Cc2cc3nc(-c4cccc5[nH]ncc45)nc(N4CCOCC4)c3s2)CC1 | % | 89.1
Cc1c(CN2CCN(C(=O)[C@H](C)O)CC2)sc2c(N3CCOCC3)nc(-c3cnc(N)nc3)nc12 | % | 82.2
Cc1ccc(Nc2nccc(N(C)c3ccc4c(C)n(C)nc4c3)n2)cc1S(N)(=O)=O | % | 86.5
COc1ccc(-c2cc3c(C)nc(N)nc3n([C@H]3CC[C@H](OCCO)CC3)c2=O)cn1 | % | 60.5

// next entry
Qu. Answer with the recorded normalised viability of CO[C@@H](C(=O)N1Cc2[nH]nc(NC(=O)c3ccc(N4CCN(C)CC4)cc3)c2C1)c1ccccc1 only.
Ans. 67.1

###

As shown below, each of these molecules has a reported drug sensitivity score value.
# Test system: CAL-120
# protocol: drug sensitivity score (DSS), CellTox Green (DSS (AUC-based score)); higher = stronger drug effect (viability inhibition or cytotoxicity); extreme values may be limits of the assay
# protocol-conditions: incubation time: 72 h
Number only, no unit.

compound-structure | drug sensitivity score
CC(C)N(CCCNC(=O)Nc1ccc(C(C)(C)C)cc1)C[C@H]1O[C@@H](n2cc(Br)c3c(N)ncnc32)[C@H](O)[C@@H]1O | 0

Qu. Provide drug sensitivity score, tested on CAL-120, for O=S(=O)(c1cccc2cnccc12)N1CCCNCC1 .
Ans. 0

Qu. Provide drug sensitivity score, tested on CAL-120, for CCC/C=C/C=C/C(=O)O[C@H]1/C(=C/C(=O)OC)C[C@H]2C[C@H]([C@@H](C)O)OC(=O)C[C@H](O)C[C@@H]3C[C@H](OC(C)=O)C(C)(C)[C@](O)(C[C@@H]4C/C(=C/C(=O)OC)C[C@H](/C=C/C(C)(C)[C@]1(O)O2)O4)O3 .
Ans. 0

Qu. Provide drug sensitivity score, tested on CAL-120, for CC(=O)OC[C@H]1O[C@@H]([S-])[C@H](OC(C)=O)[C@@H](OC(C)=O)[C@@H]1OC(C)=O.CCP(CC)CC.[Au+] .
Ans. 0.776

###

# Tested on: Hs578T
# protocol: normalised response (% of control), CellTiter-Glo; higher = more viable cells (100 = DMSO, 0 = benzethonium chloride kill control)
# protocol-conditions: incubation time: 72 h
value-kind: normalised response (%)
Please state the figure in %; there is no need to write the unit.

compound | observed-result
O=C(Nc1c[nH]nc1-c1nc2ccc(CN3CCOCC3)cc2[nH]1)NC1CC1 [AT9283] (0.1 nM) | 97.5
Cc1ccc(Nc2nccc(N(C)c3ccc4c(C)n(C)nc4c3)n2)cc1S(N)(=O)=O [Pazopanib] (1000 nM) | 95.6
C[C@]12C=CC(=O)C=C1CC[C@@H]1[C@@H]2[C@@H](O)C[C@@]2(C)[C@H]1CC[C@]2(O)C(=O)CO [Prednisolone] (1000 nM) | 113

// next entry
Qu. Answer with the recorded normalised response of O=C(CCBr)N1CCN(C(=O)CCBr)CC1 [Pipobroman] (1 nM) only.
Ans. 102
